Where do these numbers come from? They come from the supplement of paper PMC9233669.

# Tested on: biotinyl-Ile-oxazolone
# measurement.notes: self-aminoacylation, catalytic enhancement (BIO) (fold over background); higher = more active; k-Seq, kA / k0A0; sequences stand for … in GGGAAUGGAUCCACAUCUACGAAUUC…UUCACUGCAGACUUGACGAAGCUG
Variants at the floor of the assay were thinned out.
metric: self-aminoacylation
Write no unit; give the number alone.

Could you share which self-aminoacylation value was measured for CUACAUCAAACAAUCGGUCUU [Fam1A.1 aminoacylation ribozyme variant] ?
0.69

Could you share which self-aminoacylation value was measured for AAGUAUGCUGAUAGUCGCAAG [Fam3.1 aminoacylation ribozyme variant] ?
1.84

Could you share which self-aminoacylation value was measured for AUGCACCUAGGUCCUCGGGUG [Fam2.2 aminoacylation ribozyme variant] ?
3.44

Could you share which self-aminoacylation value was measured for CCACAGUUCAAGCAGUCGGUC [Fam1B.1 aminoacylation ribozyme variant] ?
0.937

Could you share which self-aminoacylation value was measured for CAACACUUCAAGCUAUCGGUC [Fam1B.1 aminoacylation ribozyme variant] ?
1.2

* * *

# Test system: biotinyl-Ile-oxazolone
# measurement.notes: self-aminoacylation, catalytic enhancement (BIO) (fold over background); higher = more active; k-Seq, kA / k0A0; sequences stand for … in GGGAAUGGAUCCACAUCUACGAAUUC…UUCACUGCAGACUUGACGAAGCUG
This sample holds only a part of the variants without activity.
metric: self-aminoacylation
Write no unit; give the number alone.

Here are 5 sequences together with their reported answers.
CUACUACAAACAAUCGGGCUG [Fam1A.1 aminoacylation ribozyme variant] | 1.16
CUUCACCUAGGUCCUCGGGUG [Fam2.2 aminoacylation ribozyme variant] | 3.4
AUUCACCUAGGUCAGGGGGUG [Fam2.2 aminoacylation ribozyme variant] | 1.78
AUUACCCUGGUCAUCGAGUGC [Fam2.1 aminoacylation ribozyme variant] | 3.92
CCCCACUUCAAGCAAUCGGUC [Fam1B.1 aminoacylation ribozyme variant] | 1.54

Could you share which self-aminoacylation value was measured for AUUACCCUAGUCAUCGAGUGU [Fam2.1 aminoacylation ribozyme variant] ?
1.95

Could you share which self-aminoacylation value was measured for CGACACAUCAAGCAAUCGGUC [Fam1B.1 aminoacylation ribozyme variant] ?
1.01

Could you share which self-aminoacylation value was measured for CUACAUCAAACAAUCGGUCUG [Fam1A.1 aminoacylation ribozyme variant] ?
0.799

Could you share which self-aminoacylation value was measured for AAGUUGGCAAAUAGUCGCAAG [Fam3.1 aminoacylation ribozyme variant] ?
1.57

* * *

# Test system: biotinyl-Met-oxazolone
# measurement.notes: self-aminoacylation, catalytic enhancement (BMO) (fold over background); higher = more active; k-Seq, kA / k0A0; sequences stand for … in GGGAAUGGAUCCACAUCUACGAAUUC…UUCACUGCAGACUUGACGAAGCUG
Variants at the floor of the assay were thinned out.
metric: self-aminoacylation
Write no unit; give the number alone.

Request body: readout self-aminoacylation, system biotinyl-Met-oxazolone, query AAGUUUGCUAAUAGUAGCCAG [Fam3.1 aminoacylation ribozyme variant] . Return the value.
0.77

* * *

# System: biotinyl-Trp-oxazolone
# measurement.notes: self-aminoacylation, catalytic enhancement (BWO) (fold over background); higher = more active; k-Seq, kA / k0A0; sequences stand for … in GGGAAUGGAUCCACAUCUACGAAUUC…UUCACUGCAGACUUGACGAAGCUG
Variants at the floor of the assay were thinned out.
metric: self-aminoacylation
Write no unit; give the number alone.

Here are 2 sequences together with their reported answers.
CUACUUCAAACCAUCGAUCUG [Fam1A.1 aminoacylation ribozyme variant] | 0.581
AAGUUUGCUAAUAGUCGGUAG [Fam3.1 aminoacylation ribozyme variant] | 0.993

Now let's try a different one.
Request body: readout self-aminoacylation, system biotinyl-Trp-oxazolone, query CCACCCUUCAGGCAAUCGGUC [Fam1B.1 aminoacylation ribozyme variant] . Return the value.
1.71
